The origin of these recorded values is ChEMBL document CHEMBL5523727.

assay: Metabolic stability in rat liver microsomes assessed as intrinsic clearance at 1 uM measured upto 60 mins in presence of NADPH by UPLC/MS-MS analysis; assay type: ADME, Microsome; conditions: read-out: CLH
REPORTED METRIC: microsomal CLint at 1 µM (µL/min/mg)
Give just the number in µL/min/mg; leave the unit off.

## Input Name the recorded microsomal CLint at 1 µM of the molecule listed here: CN(CCCO[C@H]1C[C@H](Nc2cccc3c2C(=O)N(C2CCC(=O)NC2=O)C3=O)C1)C[C@H]1CC[C@H](n2cc3cc(NC(=O)c4cccc(C(F)(F)F)n4)ccc3n2)CC1 (stereo not given in full)
## Output 11

## Input Name the recorded microsomal CLint at 1 µM of the molecule listed here: COc1cc2nc([C@H]3CC[C@H](CN4CC5(CC(CCNc6cccc7c6C(=O)N(C6CCC(=O)NC6=O)C7=O)C5)C4)CC3)oc2cc1NC(=O)c1cccc(C(F)(F)F)n1 (stereo not given in full)
## Output 2.9

## Input Name the recorded microsomal CLint at 1 µM of the molecule listed here: CN(CCCO[C@H]1C[C@H](Nc2cccc3c2C(=O)N(C2CCC(=O)NC2=O)C3=O)C1)C[C@H]1CC[C@H](n2cc3cc(NC(=O)c4cccc(C(F)(F)F)n4)c(C(C)(C)O)cc3n2)CC1 (stereo not given in full)
## Output 26

## Input Name the recorded microsomal CLint at 1 µM of the molecule listed here: COc1cc2nn([C@H]3CC[C@H](CN4CC5(CC(CCNc6cccc7c6C(=O)N(C6CCC(=O)NC6=O)C7=O)C5)C4)CC3)cc2cc1NC(=O)c1cccc(C(F)(F)F)n1 (stereo not given in full)
## Output 1.6

====

target: Protein cereblon/Interleukin-1 receptor-associated kinase 4 (Homo sapiens, UniProt Q9NWZ3+Q96SW2); assay: PROTAC activity at CRBN/IRAK4 in human OCI-Ly10 cells assessed as induction of IRAK4 degradation measured after 24 hrs by MSD assay relative to control; type: cell-based
Sequence (Q96SW2 whole entry, looked up): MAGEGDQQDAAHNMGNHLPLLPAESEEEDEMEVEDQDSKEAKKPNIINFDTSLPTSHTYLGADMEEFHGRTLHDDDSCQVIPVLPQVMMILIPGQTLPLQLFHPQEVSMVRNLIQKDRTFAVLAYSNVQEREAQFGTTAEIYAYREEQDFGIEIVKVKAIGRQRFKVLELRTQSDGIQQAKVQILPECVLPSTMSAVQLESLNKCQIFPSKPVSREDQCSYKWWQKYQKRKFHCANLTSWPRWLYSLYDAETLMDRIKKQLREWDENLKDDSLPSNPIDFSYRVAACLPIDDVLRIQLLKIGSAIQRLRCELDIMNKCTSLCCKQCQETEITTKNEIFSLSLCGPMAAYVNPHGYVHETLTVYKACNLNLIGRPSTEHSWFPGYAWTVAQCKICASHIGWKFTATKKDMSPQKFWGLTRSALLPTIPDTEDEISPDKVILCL
Sequence (Q9NWZ3 whole entry, looked up): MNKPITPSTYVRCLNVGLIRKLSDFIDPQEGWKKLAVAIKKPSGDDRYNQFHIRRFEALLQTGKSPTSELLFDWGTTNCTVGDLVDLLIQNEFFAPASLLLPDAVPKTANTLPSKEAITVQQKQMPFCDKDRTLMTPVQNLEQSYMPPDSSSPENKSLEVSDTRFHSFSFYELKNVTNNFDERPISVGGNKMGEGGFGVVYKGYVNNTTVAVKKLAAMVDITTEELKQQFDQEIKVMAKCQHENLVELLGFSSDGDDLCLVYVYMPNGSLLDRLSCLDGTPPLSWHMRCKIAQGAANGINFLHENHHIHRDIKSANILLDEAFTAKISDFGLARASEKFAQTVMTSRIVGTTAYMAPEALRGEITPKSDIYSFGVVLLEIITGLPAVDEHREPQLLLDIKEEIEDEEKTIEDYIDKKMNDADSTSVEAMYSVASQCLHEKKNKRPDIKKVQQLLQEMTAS
REPORTED METRIC: Emax (%)
Give just the number in %; leave the unit off.

## Input Name the recorded Emax of the compound listed here: COc1cc2nc([C@H]3CC[C@H](CN4CC5(CC(CCNc6cccc7c6C(=O)N(C6CCC(=O)NC6=O)C7=O)C5)C4)CC3)oc2cc1NC(=O)c1cccc(C(F)(F)F)n1 (some centres undefined)
## Output 68

## Input Name the recorded Emax of the compound listed here: CC(C)(O)c1cc2c(cnn2CCCCCCCCCNc2cccc3c2C(=O)N(C2CCC(=O)NC2=O)C3=O)cc1NC(=O)c1cccc(C(F)(F)F)n1 (centres undefined)
## Output 30

## Input Name the recorded Emax of the compound listed here: CN(C[C@H]1CC[C@H](n2cc3cc(NC(=O)c4cccc(C(F)(F)F)n4)c(C(C)(C)O)cc3n2)CC1)[C@H]1CCC2(CC1)C[C@H](Nc1cccc3c1C(=O)N(C1CCC(=O)NC1=O)C3=O)C2 (some centres undefined)
## Output 86

## Input Name the recorded Emax of the compound listed here: CN(CCCOc1cccc2c1CN(C1CCC(=O)NC1=O)C2=O)C[C@H]1CC[C@H](n2cc3cc(NC(=O)c4cccc(C(F)(F)F)n4)c(C(C)(C)O)cc3n2)CC1 (some centres undefined)
## Output 80

====

experiment: Half life in Non human primate at 0.2 mg/kg, iv by LC-MS/MS analysis; type: ADME, organism-based; conditions: primates, in vivo
REPORTED METRIC: half-life (h)
Give just the number in h; leave the unit off.

## Input Name the recorded half-life of the compound listed here: CC(C)(O)c1cc2nc([C@H]3CC[C@H](CN4CC5(CC(CCNc6cccc7c6C(=O)N(C6CCC(=O)NC6=O)C7=O)C5)C4)CC3)sc2cc1NC(=O)c1cccc(C(F)(F)F)n1 (stereo partly specified) [ZOMIRADOMIDE]
## Output 16.4

====

experiment: Metabolic stability in rat liver microsomes assessed as intrinsic clearance at 1 uM measured upto 60 mins in presence of NADPH by UPLC/MS-MS analysis; assay type: ADME, Microsome; settings: read-out: CLH
Consider the following compounds; for each one, report its microsomal CLint at 1 µM.
Give just the number in µL/min/mg; leave the unit off.

## Input Name the recorded microsomal CLint at 1 µM of the compound listed here: COc1cc2nn([C@H]3CC[C@H](CN4CCC5(CC4)CC(CNc4cccc6c4C(=O)N(C4CCC(=O)NC4=O)C6=O)C5)CC3)cc2cc1NC(=O)c1cccc(C(F)(F)F)n1 (stereo not given in full)
## Output 1.6

## Input Name the recorded microsomal CLint at 1 µM of the compound listed here: COc1cc2nn([C@H]3CC[C@H](CN(C)CCCO[C@H]4C[C@H](Nc5cccc6c5C(=O)N(C5CCC(=O)NC5=O)C6=O)C4)CC3)cc2cc1NC(=O)c1cccc(C(F)(F)F)n1 (stereo not given in full)
## Output 10

## Input Name the recorded microsomal CLint at 1 µM of the compound listed here: CN(CCCNc1cccc2c1C(=O)N(C1CCC(=O)NC1=O)C2=O)C[C@H]1CC[C@H](n2cc3cc(NC(=O)c4cccc(C(F)(F)F)n4)c(C(C)(C)O)cc3n2)CC1 (stereo not given in full)
## Output 138

## Input Name the recorded microsomal CLint at 1 µM of the compound listed here: CN(CCCO[C@H]1C[C@H](Nc2cccc3c2C(=O)N(C2CCC(=O)NC2=O)C3=O)C1)C[C@H]1CC[C@H](n2cc3cc(NC(=O)c4cccc(C(F)(F)F)n4)c(C(F)F)cc3n2)CC1 (stereo not given in full)
## Output 32

====

assay: Passive permeability of the compound in wild type MDCK cells across apical to basolateral side at 1 uM measured for 120 mins by LC-MS/MS analysis; type: ADME, cell-based, Canis lupus familiaris; settings: dog, read-out: permeability
Consider the following molecules; for each one, report its Papp A→B at 2 h, 1 µM.
Number first, unit second.

## Input Name the recorded Papp A→B at 2 h, 1 µM of the molecule listed here: COc1cc2nn([C@H]3CC[C@H](CN(C)CCCO[C@H]4C[C@H](Nc5cccc6c5C(=O)N(C5CCC(=O)NC5=O)C6=O)C4)CC3)cc2cc1NC(=O)c1cccc(C(F)(F)F)n1 (stereo partly drawn)
## Output 2.4 ×10⁻⁶ cm/s

## Input Name the recorded Papp A→B at 2 h, 1 µM of the molecule listed here: CC(C)(O)c1cc2nn([C@H]3CC[C@H](CN4CCC5(CC4)CC(CNc4cccc6c4C(=O)N(C4CCC(=O)NC4=O)C6=O)C5)CC3)cc2cc1NC(=O)c1cccc(C(F)(F)F)n1 (stereo partly drawn)
## Output 2.2 ×10⁻⁶ cm/s

## Input Name the recorded Papp A→B at 2 h, 1 µM of the molecule listed here: CN(CCCOc1cccc2c1CN(C1CCC(=O)NC1=O)C2=O)C[C@H]1CC[C@H](n2cc3cc(NC(=O)c4cccc(C(F)(F)F)n4)c(C(C)(C)O)cc3n2)CC1 (stereo partly drawn)
## Output 4.8 ×10⁻⁶ cm/s

====

assay: Metabolic stability in mouse liver microsomes assessed as intrinsic clearance; type: ADME, Microsome; settings: read-out: CLH
REPORTED METRIC: microsomal CLint (µL/min/mg)
Give just the number in µL/min/mg; leave the unit off.

## Input Name the recorded microsomal CLint of the compound listed here: CC(C)(O)c1cc2nc([C@H]3CC[C@H](CN4CC5(CC(CCNc6cccc7c6C(=O)N(C6CCC(=O)NC6=O)C7=O)C5)C4)CC3)sc2cc1NC(=O)c1cccc(C(F)(F)F)n1 (stereo partly specified) [ZOMIRADOMIDE]
## Output 4

====

assay: Oral bioavailability in rat at 5 mg/kg by LC-MS/MS analysis; format: ADME, organism-based; settings: in vivo
REPORTED METRIC: bioavailability
Number first, unit second.

## Input Name the recorded bioavailability of the compound listed here: COc1cc2nc([C@H]3CC[C@H](CN4CC5(CC(CCNc6cccc7c6C(=O)N(C6CCC(=O)NC6=O)C7=O)C5)C4)CC3)sc2cc1NC(=O)c1cccc(C(F)(F)F)n1 (some centres not stated)
## Output 23%

## Input Name the recorded bioavailability of the compound listed here: CC(C)(O)c1cc2nn([C@H]3CC[C@H](CN4CCC5(CC4)CC(CNc4cccc6c4C(=O)N(C4CCC(=O)NC4=O)C6=O)C5)CC3)cc2cc1NC(=O)c1cccc(C(F)(F)F)n1 (some centres not stated)
## Output 1%

====

assay: Volume of distribution at steady state in rat at 2 mg/kg, iv by LC-MS/MS analysis; type: ADME, organism-based; settings: in vivo, read-out: Vdss
REPORTED METRIC: Vd
Number first, unit second.

## Input Name the recorded Vd of the compound listed here: CC(C)(O)c1cc2nn([C@H]3CC[C@H](CN4CCC5(CC4)CC(CNc4cccc6c4C(=O)N(C4CCC(=O)NC4=O)C6=O)C5)CC3)cc2cc1NC(=O)c1cccc(C(F)(F)F)n1 (stereo not given in full)
## Output 13 L/kg

## Input Name the recorded Vd of the compound listed here: COc1cc2nc([C@H]3CC[C@H](CN4CC5(CC(CCNc6cccc7c6C(=O)N(C6CCC(=O)NC6=O)C7=O)C5)C4)CC3)sc2cc1NC(=O)c1cccc(C(F)(F)F)n1 (stereo not given in full)
## Output 9.7 L/kg

## Input Name the recorded Vd of the compound listed here: COc1cc2nn([C@H]3CC[C@H](CN4CC5(CC(CCNc6cccc7c6C(=O)N(C6CCC(=O)NC6=O)C7=O)C5)C4)CC3)cc2cc1NC(=O)c1cccc(C(F)(F)F)n1 (stereo not given in full)
## Output 29 L/kg

## Input Name the recorded Vd of the compound listed here: CC(C)(O)c1cc2nn([C@H]3CC[C@H](CN4CCC5(CC4)CC(Nc4cccc6c4C(=O)N(C4CCC(=O)NC4=O)C6=O)C5)CC3)cc2cc1NC(=O)c1cccc(C(F)(F)F)n1 (stereo not given in full)
## Output 13 L/kg

## Input Name the recorded Vd of the compound listed here: COc1cc2nc([C@H]3CC[C@H](CN4CC5(CC(CCNc6cccc7c6C(=O)N(C6CCC(=O)NC6=O)C7=O)C5)C4)CC3)n(C)c2cc1NC(=O)c1cccc(C(F)(F)F)n1 (stereo not given in full)
## Output 33 L/kg
